Origin of values: ChEMBL document CHEMBL1133723

Molecular target: Human immunodeficiency virus type 1 integrase (Human immunodeficiency virus 1)
Settings: at 1 mM
measurement-kind: inhibition

Below, 3 compounds whose answers are already recorded.
1) O=C[C@H](O)[C@@H](O)C(O[C@@H]1O[C@H](CO)[C@H](O)[C@H](O)[C@H]1O)[C@H](O)CO (stereo partly drawn) ... < 50%
2) CCCNC(=O)NNC(=O)c1ccccc1NC(=O)NCCC ... < 50%
3) Cc1[nH]n(-c2cccc(NC(=O)Nc3cccc(-n4[nH]c(C)c(/N=N/c5c(O)cc(S(=O)(=O)O)c6cc([N+](=O)[O-])ccc56)c4=O)c3)c2)c(=O)c1/N=N/c1c(O)cc(S(=O)(=O)O)c2cc([N+](=O)[O-])ccc12 ... > 50%

Looking up CC(C)C[C@@H](C=O)NC(=O)N[C@H](C(=O)N[C@@H](CCC(N)=O)C(=O)N[C@@H](C)C=O)[C@@H]1CCN=C(N)N1 , I found its inhibition recorded as < 50%

Lab book: inhibition of O=C(NCCCCCCNC(=O)NNc1ccccc1)NNc1ccccc1 noted as < 50%

---

Biological target: Human immunodeficiency virus type 1 integrase (Human immunodeficiency virus 1, UniProt Q7ZJM1)
Sequence (Q7ZJM1 whole entry): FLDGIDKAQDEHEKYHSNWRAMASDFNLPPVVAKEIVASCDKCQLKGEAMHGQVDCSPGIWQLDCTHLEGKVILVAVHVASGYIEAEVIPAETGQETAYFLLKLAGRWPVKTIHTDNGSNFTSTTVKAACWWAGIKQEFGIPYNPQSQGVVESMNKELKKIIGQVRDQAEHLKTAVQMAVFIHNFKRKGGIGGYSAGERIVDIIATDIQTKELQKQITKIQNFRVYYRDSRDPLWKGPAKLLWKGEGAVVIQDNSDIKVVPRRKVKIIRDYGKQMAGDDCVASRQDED
measurement-kind: IC50

The reported IC50 of the compound O=C(/C=C\c1ccc(O)c(O)c1)OC1CC(O)(C(=O)O)CC(OC(=O)/C=C\c2ccc(O)c(O)c2)C1O (stereo unspecified) was 640 nM

---

Values of IC50 reported for UniProt:Q7ZJM1 appear below.
Write the value in nM as a bare number.

1. C[C@@H]1O[C@@H](OC2C[C@](O)(C(=O)CO)Cc3c(O)c4c(c(O)c32)C(=O)c2c(O)cccc2C4=O)C[C@H](N)[C@@H]1O (some centres undefined) ... 4100

Entry under test: O=C(/C=C\c1ccc(O)c(O)c1)OC1CC(O)(C(=O)O)CC(OC(=O)/C=C\c2ccc(O)c(O)c2)C1O (centres undefined) . Its IC50 was 660

Query O=C1c2ccc(O)c(O)c2C(=O)c2c(O)ccc(O)c21 yields IC50 of 1000

O=C(/C=C\c1ccc(O)c(O)c1)OC1CC(OC(=O)/C=C\c2ccc(O)c(O)c2)(C(=O)O)CC(O)C1O (centres undefined) yielded IC50 of 1080

---

Target: Human immunodeficiency virus type 1 integrase (Human immunodeficiency virus 1)
Assay: Inhibition against HIV-1 integrase at 25 uM
Where a SMILES comes first, the peptide text is derived from it. The star is where a group is joined. pNA = O=[N+]([O-])c1ccc(N*)cc1; Boc = CC(C)(C)OC(=O)*; Bn = c1ccc(C*)cc1
measurement-kind: inhibition

1. O=C(NCNC(=O)NC1C(=O)NC(=O)N1CO)NC1C(=O)NC(=O)N1CO (centres undefined) ... < 50%

According to the records, this molecule N/N=C(\S)Nc1ccc(N/C(S)=N/N)cc1 displays inhibition of < 50%

Lookup result for CC(C)(C)OC(=O)N[C@@H](COCc1ccccc1)C(=O)NCC(=O)N[C@@H](CCCN=C(N)N)C(=O)Nc1ccc([N+](=O)[O-])cc1 (Boc-Ser(Bn)-Gly-Arg-pNA) ; measured inhibition: < 50%

Input Cc1[nH]n(-c2cccc(NC(=O)Nc3cccc(-n4[nH]c(C)c(/N=N/c5c(O)cc(S(=O)(=O)O)c6cc([N+](=O)[O-])ccc56)c4=O)c3)c2)c(=O)c1/N=N/c1c(O)cc(S(=O)(=O)O)c2cc([N+](=O)[O-])ccc12 . Output inhibition: > 50%

NC[C@@H](O)c1ccc(OC(=O)[C@H](O)[C@@H](O)C(=O)O)c(OC(=O)[C@H](O)[C@@H](O)C(=O)O)c1 has a reported inhibition of < 50%

Kindly note the recorded inhibition for NNC(=O)C(O)C(O)C(O)C(O)CO (centres undefined) , which is < 50%

Recorded result, CCCCCCCCCCCCC/C=C/C(O)C(N)CO[C@@H]1O[C@H](CO)[C@H](O)[C@H](O)[C@H]1O (some centres undefined) , inhibition: < 50%

In plain terms, NC(=O)c1ccccc1NC(=O)Nc1cc(NC(=O)Nc2ccccc2C(N)=O)c(Br)cc1Br has a documented inhibition of < 50%

# molecule O=C(O[C@@H]1Cc2c(O)cc(O)cc2O[C@@H]1c1cc(O)c(O)c(O)c1)c1cc(O)c(O)c(O)c1 ; its inhibition = > 50%
